system: Enterobacter cloacae; assay: Antibacterial activity against polymyxin-susceptible Enterobacter cloacae FADD1-EC001 clinical isolates assessed as reduction in bacterial growth by broth microdilution method; format: functional
Provide the reported log10 of MIC of each item.
Plainly stated, the numbers are log10 of MIC given in µg/mL.

Task: Query (compound): `CC[C@H](C)CCCCC(=O)N[C@@H](CCN)C(=O)N[C@H](C(=O)N[C@@H](CCN)C(=O)N[C@H]1CCNC(=O)[C@H](Cc2ccccc2)NC(=O)[C@H](CCN)NC(=O)[C@H](CCN)NC(=O)[C@H](CC(C)C)NC(=O)[C@@H](Cc2ccccc2)NC(=O)[C@H](CCN)NC1=O)[C@@H](C)O` ; field requested: log10 of MIC
Result: 0.60

Task: Query (compound): `CC[C@H](C)CCCCC(=O)N[C@@H](CCN)C(=O)N[C@H](C(=O)N[C@@H](CCN)C(=O)N[C@H]1CCNC(=O)[C@H](Cc2c[nH]c3ccccc23)NC(=O)[C@H](CCN)NC(=O)[C@H](CCN)NC(=O)[C@H](CC(C)C)NC(=O)[C@@H](Cc2ccccc2)NC(=O)[C@H](CCN)NC1=O)[C@@H](C)O` ; field requested: log10 of MIC
Result: 0.90

Task: Query (compound): CC[C@H](C)CCCCC(=O)N[C@@H](CCN)C(=O)N[C@H](C(=O)N[C@@H](CCN)C(=O)N[C@H]1CCNC(=O)[C@H](C(C)N=[N+]=[N-])NC(=O)[C@H](CCN)NC(=O)[C@H](CCN)NC(=O)[C@H](CC(C)C)NC(=O)[C@@H](Cc2ccccc2)NC(=O)[C@H](CCN)NC1=O)[C@@H](C)O (some centres undefined) ; field requested: log10 of MIC
Result: 0.90

Task: Query (compound): `CC[C@H](C)CCCCC(=O)N[C@@H](CCN)C(=O)N[C@H](C(=O)N[C@@H](CCN)C(=O)N[C@H]1CCNC(=O)[C@H]([C@@H](C)O)NC(=O)[C@H](CCN)NC(=O)[C@H](CCN)NC(=O)[C@H](CC(C)C)NC(=O)[C@@H](Cc2ccccc2)NC(=O)[C@H](CCN)NC1=O)[C@@H](C)O` ; field requested: log10 of MIC
Result: -0.30

Task: Query (compound): `CC[C@H](C)CCCCC(=O)N[C@@H](CCN)C(=O)N[C@H](C(=O)N[C@@H](CCN)C(=O)N[C@H]1CCNC(=O)[C@H](C)NC(=O)[C@H](CCN)NC(=O)[C@H](CCN)NC(=O)[C@H](CC(C)C)NC(=O)[C@@H](Cc2ccccc2)NC(=O)[C@H](CCN)NC1=O)[C@@H](C)O` ; field requested: log10 of MIC
Result: 0.30

Task: Query (compound): `CC[C@H](C)CCCCC(=O)N[C@@H](CCN)C(=O)N[C@H](C(=O)N[C@@H](CCN)C(=O)N[C@H]1CCNC(=O)[C@H](CS)NC(=O)[C@H](CCN)NC(=O)[C@H](CCN)NC(=O)[C@H](CC(C)C)NC(=O)[C@@H](Cc2ccccc2)NC(=O)[C@H](CCN)NC1=O)[C@@H](C)O` ; field requested: log10 of MIC
Result: 1.20

Task: Query (compound): `CC[C@H](C)CCCCC(=O)N[C@@H](CCN)C(=O)N[C@H](C(=O)N[C@@H](CCN)C(=O)N[C@H]1CCNC(=O)[C@H](CCSC)NC(=O)[C@H](CCN)NC(=O)[C@H](CCN)NC(=O)[C@H](CC(C)C)NC(=O)[C@@H](Cc2ccccc2)NC(=O)[C@H](CCN)NC1=O)[C@@H](C)O` ; field requested: log10 of MIC
Result: 0.90

Task: Query (compound): `CC[C@H](C)CCCCC(=O)N[C@@H](CCN)C(=O)N[C@H](C(=O)N[C@@H](CCN)C(=O)N[C@H]1CCNC(=O)[C@H](CCCNC(=N)N)NC(=O)[C@H](CCN)NC(=O)[C@H](CCN)NC(=O)[C@H](CC(C)C)NC(=O)[C@@H](Cc2ccccc2)NC(=O)[C@H](CCN)NC1=O)[C@@H](C)O` ; field requested: log10 of MIC
Result: 1.51

Task: Query (compound): `CC[C@H](C)CCCCC(=O)N[C@@H](CCN)C(=O)N[C@H](C(=O)N[C@@H](CCN)C(=O)N[C@H]1CCNC(=O)[C@H]([C@H](C)O)NC(=O)[C@H](CCN)NC(=O)[C@H](CCN)NC(=O)[C@H](CC(C)C)NC(=O)[C@@H](Cc2ccccc2)NC(=O)[C@H](CCN)NC1=O)[C@@H](C)O` ; field requested: log10 of MIC
Result: 0.30

Task: Query (compound): `CC[C@H](C)CCCCC(=O)N[C@@H](CCN)C(=O)N[C@H](C(=O)N[C@@H](CCN)C(=O)N[C@H]1CCNC(=O)[C@H](CN)NC(=O)[C@H](CCN)NC(=O)[C@H](CCN)NC(=O)[C@H](CC(C)C)NC(=O)[C@@H](Cc2ccccc2)NC(=O)[C@H](CCN)NC1=O)[C@@H](C)O` ; field requested: log10 of MIC
Result: 0.30

Task: Query (compound): `CC[C@H](C)CCCCC(=O)N[C@@H](CCN)C(=O)N[C@H](C(=O)N[C@@H](CCN)C(=O)N[C@H]1CCNC(=O)[C@H](CO)NC(=O)[C@H](CCN)NC(=O)[C@H](CCN)NC(=O)[C@H](CC(C)C)NC(=O)[C@@H](Cc2ccccc2)NC(=O)[C@H](CCN)NC1=O)[C@@H](C)O` ; field requested: log10 of MIC
Result: -0.30

Task: Query (compound): `CCC[C@@H]1NC(=O)[C@H](CCN)NC(=O)[C@H](CCN)NC(=O)[C@H](CC(C)C)NC(=O)[C@@H](Cc2ccccc2)NC(=O)[C@H](CCN)NC(=O)[C@@H](NC(=O)[C@H](CCN)NC(=O)[C@@H](NC(=O)[C@H](CCN)NC(=O)CCCC[C@@H](C)CC)[C@@H](C)O)CCNC1=O` ; field requested: log10 of MIC
Result: 0.30

Where do these numbers come from? They come from ChEMBL document CHEMBL5316337.
